Molecular target: SIRT1 (Homo sapiens, UniProt Q96EB6)
Sequence (Q96EB6 1-747): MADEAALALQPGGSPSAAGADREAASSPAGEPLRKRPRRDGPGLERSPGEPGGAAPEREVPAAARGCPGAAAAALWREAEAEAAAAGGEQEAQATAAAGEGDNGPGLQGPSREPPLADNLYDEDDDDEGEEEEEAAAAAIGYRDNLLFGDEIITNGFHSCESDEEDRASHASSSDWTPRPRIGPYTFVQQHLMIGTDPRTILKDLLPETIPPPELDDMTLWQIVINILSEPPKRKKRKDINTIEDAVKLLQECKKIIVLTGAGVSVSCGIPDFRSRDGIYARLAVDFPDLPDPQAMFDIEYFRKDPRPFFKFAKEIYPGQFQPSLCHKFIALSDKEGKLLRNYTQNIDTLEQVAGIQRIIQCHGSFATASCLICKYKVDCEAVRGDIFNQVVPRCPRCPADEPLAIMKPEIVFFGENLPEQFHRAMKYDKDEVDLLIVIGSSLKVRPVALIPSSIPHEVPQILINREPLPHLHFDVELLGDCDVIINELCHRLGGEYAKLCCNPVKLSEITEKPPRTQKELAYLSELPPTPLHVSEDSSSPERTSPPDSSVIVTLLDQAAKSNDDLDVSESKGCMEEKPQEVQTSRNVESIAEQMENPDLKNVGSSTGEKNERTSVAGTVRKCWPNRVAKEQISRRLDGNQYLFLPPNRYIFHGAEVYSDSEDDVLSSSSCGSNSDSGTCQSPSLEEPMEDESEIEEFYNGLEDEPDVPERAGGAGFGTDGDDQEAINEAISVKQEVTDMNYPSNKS
Experiment: TAMRA based mass spectrometry assay of SIRT1 activation
Type: biochemical
Details: 25 min; percent maximum fold activation relative to control (100%); TAMRA peptide substrate; read-out: TAMRA % Fold Act
As shown below, each of these molecules has a reported Emax value.

{"columns": ["compound.string", "Emax"],
 "data": [
  ["O=C(Nc1ccc2ncc(-c3ccccc3F)n2n1)c1nccs1", "< 350%"],
  ["O=C(Nc1cccc(C(F)(F)F)n1)c1ccc2ncc(-c3ccccc3Cl)n2n1", "< 350%"],
  ["O=C(Nc1nccs1)c1ccc2nnc(-c3cccc(C(F)(F)F)c3)n2n1", "< 350%"],
  ["O=C(Nc1ccnc(C2CCOCC2)c1)c1ccc2ncc(-c3cccc(C(F)(F)F)c3)n2n1", "≥ 350%"],
  ["O=C(Nc1ccccn1)c1ccc2nnc(-c3cccc(N4CCOCC4)c3)n2n1", "< 350%"]
]}

---

biological target: UniProtKB Q96EB6; experiment: TAMRA based mass spectrometry assay of SIRT1 activation; type: biochemical; conditions: concentration giving 150% activation of SIRT1; TAMRA peptide substrate
readout.kind: TAMRA EC1.5 (μM)

{"columns": ["compound.string", "meas.value"],
 "data": [
  ["O=C(Nc1nccs1)c1ccc2nnc(-c3cccc(N4CCOCC4)c3)n2n1", "C (EC1.5>25 μM)"],
  ["O=C(Nc1ccc2ncc(-c3ccccc3Cl)n2n1)c1ccccn1", "C (EC1.5>25 μM)"],
  ["O=C(Nc1cccc(N2CCOCC2)n1)c1ccc2ncc(-c3ccccc3Cl)n2n1", "C (EC1.5>25 μM)"],
  ["Cn1ccc(C(=O)Nc2ccc3ncc(-c4cccc(Cl)c4)n3n2)n1", "A (EC1.5<1 μM)"],
  ["O=C(Nc1ccnc(C2CCOCC2)c1)c1ccc2ncc(-c3cccc(C(F)(F)F)c3)n2n1", "A (EC1.5<1 μM)"],
  ["Cn1ccc(C(=O)Nc2ccc3ncc(-c4ccccc4F)n3n2)n1", "A (EC1.5<1 μM)"],
  ["Cn1ccc(C(=O)Nc2ccc3ncc(-c4cccc(C(F)(F)F)c4)n3n2)n1", "C (EC1.5>25 μM)"],
  ["O=C(Nc1ccc2ncc(-c3cccc(Cl)c3)n2n1)c1ccccn1", "B (EC1.5 1-25 μM)"],
  ["O=C(Nc1ccc2ncc(-c3cccc(C(F)(F)F)c3)n2n1)c1cnccn1", "C (EC1.5>25 μM)"],
  ["O=C(Nc1ccccn1)c1ccc2nnc(-c3cccc(OC(F)(F)F)c3)n2n1", "C (EC1.5>25 μM)"],
  ["O=C(Nc1cccc(N2CCOCC2)n1)c1ccc2ncc(-c3cccc(F)c3)n2n1", "C (EC1.5>25 μM)"],
  ["O=C(Nc1ccc2ncc(-c3ccccc3F)n2n1)c1ncccn1", "B (EC1.5 1-25 μM)"],
  ["O=C(Nc1cccc(N2CCOCC2)n1)c1ccc2ncc(-c3cccc(C(F)(F)F)c3)n2n1", "A (EC1.5<1 μM)"],
  ["O=C(Nc1ccc2ncc(-c3cccc(Cl)c3)n2n1)c1cnccn1", "A (EC1.5<1 μM)"],
  ["O=C(Nc1cccc(N2CCOCC2)n1)c1ccc2ncc(-c3cccc(Cl)c3)n2n1", "B (EC1.5 1-25 μM)"],
  ["O=C(Nc1ccc2ncc(-c3cccc(Cl)c3)n2n1)c1nccs1", "B (EC1.5 1-25 μM)"],
  ["Cn1ccc(C(=O)Nc2ccc3ncc(-c4cccc(F)c4)n3n2)n1", "C (EC1.5>25 μM)"],
  ["O=C(Nc1ccc2ncc(-c3cccc(F)c3)n2n1)c1nccs1", "B (EC1.5 1-25 μM)"],
  ["O=C(Nc1ccc2ncc(-c3ccccc3F)n2n1)c1nccs1", "C (EC1.5>25 μM)"],
  ["O=C(Nc1nccs1)c1ccc2nnc(-c3cccc(C(F)(F)F)c3)n2n1", "C (EC1.5>25 μM)"],
  ["O=C(Nc1cccc(C(F)(F)F)n1)c1ccc2ncc(-c3ccccc3Cl)n2n1", "C (EC1.5>25 μM)"],
  ["CS(=O)(=O)c1cccc(-c2nnc3ccc(C(=O)Nc4nccs4)nn23)c1", "C (EC1.5>25 μM)"],
  ["O=C(Nc1cccc(C(F)(F)F)n1)c1ccc2ncc(-c3ccccc3F)n2n1", "B (EC1.5 1-25 μM)"],
  ["O=C(Nc1ccc2ncc(-c3cccc(C(F)(F)F)c3)n2n1)c1nccs1", "C (EC1.5>25 μM)"],
  ["O=C(Nc1ccnc(C(F)(F)F)c1)c1ccc2ncc(-c3cccc(F)c3)n2n1", "C (EC1.5>25 μM)"],
  ["O=C(Nc1ccc2ncc(-c3ccccc3F)n2n1)c1ccccn1", "C (EC1.5>25 μM)"],
  ["O=C(Nc1ccccn1)c1ccc2nnc(-c3cccc(C(F)(F)F)c3)n2n1", "C (EC1.5>25 μM)"],
  ["O=C(Nc1ccnc(C(F)(F)F)c1)c1ccc2ncc(-c3ccccc3F)n2n1", "B (EC1.5 1-25 μM)"],
  ["O=C(Nc1ccc2ncc(-c3ccccc3Cl)n2n1)c1nccs1", "B (EC1.5 1-25 μM)"],
  ["O=C(Nc1ccc2ncc(-c3cccc(F)c3)n2n1)c1ccccn1", "B (EC1.5 1-25 μM)"],
  ["O=C(Nc1ccc2ncc(-c3cccc(Cl)c3)n2n1)c1ncccn1", "B (EC1.5 1-25 μM)"],
  ["O=C(Nc1ccc2ncc(-c3cccc(C(F)(F)F)c3)n2n1)c1ccccn1", "B (EC1.5 1-25 μM)"],
  ["Cn1ccc(C(=O)Nc2ccc3ncc(-c4ccccc4Cl)n3n2)n1", "C (EC1.5>25 μM)"],
  ["O=C(Nc1ccc2ncc(-c3cccc(F)c3)n2n1)c1cnccn1", "B (EC1.5 1-25 μM)"],
  ["O=C(Nc1ccc2ncc(-c3ccccc3Cl)n2n1)c1ncccn1", "A (EC1.5<1 μM)"],
  ["O=C(Nc1ccc2ncc(-c3cccc(F)c3)n2n1)c1ncccn1", "C (EC1.5>25 μM)"]
]}
